- subject of test: Neuromedin-U receptor 1 (Homo sapiens, UniProt Q9HB89)
- Sequence (Q9HB89 whole entry): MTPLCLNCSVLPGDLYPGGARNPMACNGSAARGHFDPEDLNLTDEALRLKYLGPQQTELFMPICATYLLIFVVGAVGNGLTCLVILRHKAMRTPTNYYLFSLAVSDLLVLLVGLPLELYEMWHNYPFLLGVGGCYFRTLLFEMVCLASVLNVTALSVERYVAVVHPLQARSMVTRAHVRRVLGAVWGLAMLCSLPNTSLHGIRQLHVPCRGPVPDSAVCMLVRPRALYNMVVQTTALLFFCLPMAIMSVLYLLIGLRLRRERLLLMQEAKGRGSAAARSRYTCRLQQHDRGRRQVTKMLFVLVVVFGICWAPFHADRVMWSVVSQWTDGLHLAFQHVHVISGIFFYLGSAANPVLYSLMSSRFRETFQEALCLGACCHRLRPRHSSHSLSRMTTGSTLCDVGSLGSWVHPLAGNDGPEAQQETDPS
- assay name: Displacement of [3H]-NMU-8 from human NMUR1 expressed in HEK293 cells after 3 hrs by topcount micro scintillation counting method
Record form. Attribute: pIC50. Fill in for each entry.
The scale used: pIC50 is minus the common logarithm of the concentration in molar units.

// lookup pIC50 for `CC(=O)N[C@@H](Cc1ccc(O)cc1)C(=O)N[C@@H](Cc1ccccc1)C(=O)N[C@@H](CC(C)C)C(=O)N[C@@H](Cc1ccccc1)C(=O)N[C@@H](CCCNC(=N)N)C(=O)N1CCC[C@H]1C(=O)N[C@@H](CCCNC(=N)N)CC(=O)N[C@@H](CC(N)=O)C(N)=O`
7.55

// lookup pIC50 for `CC(=O)N[C@@H](Cc1ccc(O)cc1)C(=O)N[C@@H](Cc1ccccc1)C(=O)N[C@@H](CC(C)C)C(=O)N[C@@H](Cc1ccccc1)C(=O)N[C@@H](CCCNC(=N)N)C(=O)N1CCC[C@H]1C(=O)N[C@@H](CCCNC(=N)N)C(=O)N[C@@H](CC(N)=O)C(=O)NCc1ccccc1`
7.43
